All values here come from the RepoRT retention time repository.

Assay: HILIC, Waters ACQUITY UPLC BEH Amide, 100 × 2.1 mm, 1.7 µm; A: water + 0.125% formic acid + 10 mM ammonium formate; B: 5% water + 95% acetonitrile + 0.125% formic acid + 10 mM ammonium formate; gradient (min/%B) 0/100 2/100 7.7/70 9.5/40 10.25/30 12.75/100 17/100
Settings: stereoisomer not certain
I'd appreciate it if you could supply LC retention time values for the items below.
# value in min; strip the unit string

// CN1CCN(c2c(F)cc3c(=O)c(C(=O)O)cn4c3c2SCC4)CC1 : LC retention time value = 4.65

The molecule listed as Cc1occc(=O)c1O has a reported LC retention time of 1.32

Short answer for O=C(O)C1CCCCN1 (configuration not stated) : LC retention time was 7.83

According to the records, this molecule NC(N)=NCCCC(N)C(=O)O (configuration not stated) displays LC retention time of 9.53

Measured LC retention time, NC(=O)OCCCc1ccccc1 [Phenprobamate] : 1.01

response.value for c1ccc(C2CN3CCSC3=N2)cc1 (configuration not stated) (field: LC retention time) = 2.95

For NC(=O)CCC(NC(=O)C(N)CCC(=O)O)C(=O)O (configuration not stated) the molecule record lists LC retention time as 9.6

LC retention time recorded for this molecule, COCCOC(=O)C1=C(C)NC(C)=C(C(=O)OC(C)C)C1c1cccc([N+](=O)[O-])c1 (configuration not stated) , is 0.94

Summary for this molecule, CCC(C)C(NC(=O)C(C)N)C(=O)O (configuration not stated) : LC retention time is 7.83

The reported value for NC12CC3CC(CC(C3)C1)C2 in terms of LC retention time is 4.88

Form field LC retention time, entry COc1cc2c(=O)c(-c3ccc(O)cc3)coc2cc1O : 1.32

# LC retention time (molecule: CC1OC(OC2C(Oc3cc(O)c4c(c3)OC(c3ccc(O)cc3)CC4=O)OC(CO)C(O)C2O)C(O)C(O)C1O (configuration not stated) ) is 5.61

Notebook: CN1C(=O)C(O)CC1c1cccnc1 (stereo not drawn) [trans-3'-Hydroxycotinine] , LC retention time read as 2.02

Kindly note the recorded LC retention time for O=c1cnn(C2OC(CO)C(O)C2O)c(=O)[nH]1 (configuration not stated) , which is 4.31

The reported value for NC(CCC(=O)NC(CS)C(=O)NCC(=O)O)C(=O)O (configuration not stated) [Glutathione (reduced)] in terms of LC retention time is 9.07

What the record says about Nc1ccn(C2CSC(CO)O2)c(=O)n1 (configuration not stated) : LC retention time is 3.4

Record Cc1c2oc3c(C)ccc(C(=O)NC4C(=O)NC(C(C)C)C(=O)N5CCCC5C(=O)N(C)CC(=O)N(C)C(C(C)C)C(=O)OC4C)c3nc-2c(C(=O)NC2C(=O)NC(C(C)C)C(=O)N3CCCC3C(=O)N(C)CC(=O)N(C)C(C(C)C)C(=O)OC2C)c(N)c1=O (configuration not stated) . Reported LC retention time: 1.03

----------
Assay: HILIC, Waters ACQUITY UPLC BEH Amide, 100 × 2.1 mm, 1.7 µm; A: water + 0.125% formic acid + 10 mM ammonium formate; B: 5% water + 95% acetonitrile + 0.125% formic acid + 10 mM ammonium formate; gradient (min/%B) 0/100 2/100 7.7/70 9.5/40 10.25/30 12.75/100 17/100
Settings: stereoisomer not certain
ASSAY_METRIC: LC retention time (min)
Provide only the numeric value, understood in min.

Reported LC retention time ( CC12CC3CC(C)(C1)CC(N)(C3)C2 [Memantine] ) = 4.24

get_value(item= C=CCC1C=C(C)CC(C)CC(OC)C2OC(O)(C(=O)C(=O)N3CCCCC3C(=O)OC(C(C)=CC3CCC(O)C(OC)C3)C(C)C(O)CC1=O)C(C)CC2OC (stereo not given) , readout=LC retention time) returns 1.07

# compound COc1cc(C2c3cc4c(cc3C(OC3OC5COC(C)OC5C(O)C3O)C3COC(=O)C23)OCO4)cc(OC)c1O (stereo not given) [Etoposide] ; its LC retention time = 1.3

# LC retention time of CC(=O)Nc1ccn(C2OC(CO)C(O)C2O)c(=O)n1 (stereo not given) = 5.08

Sample NC(=O)CCC(NC(=O)C1CCCN1)C(=O)O (stereo not given) ; LC retention time observed: 8.75
